test: Inactivation processes of human heart Na channel expressed in Xenopus oocytes as increase in current at 10 uM; format: functional, Oocyte
Each entry below carries its recorded Change.

molecule: Cc1nccn1-c1ncnc2c1ncn2CC(O)CN1CCN(C(c2ccccc2)c2ccccc2)CC1 (configuration not stated)
Change, %: 158
--
molecule: OC(CN1CCN(C(c2ccccc2)c2ccccc2)CC1)Cn1cnc2c(Cl)ncnc21 (configuration not stated)
Change, %: 176
--
molecule: O[C@@H](CN1CCN(C(c2ccccc2)c2ccccc2)CC1)Cn1cnc2c(-n3cncn3)ncnc21
Change, %: 393
--
molecule: O[C@@H](CN1CCN(C(c2ccccc2)c2ccccc2)CC1)Cn1cnc(-n2cccn2)c2ncnc1-2
Change, %: 369
--
molecule: Cc1ncnc2c1ncn2C[C@@H](O)CN1CCN(C(c2ccccc2)c2ccccc2)CC1
Change, %: 105
--
molecule: O[C@@H](CN1CCN(C(c2ccccc2)c2ccccc2)CC1)Cn1cnc2c(-n3ccnc3)ncnc21
Change, %: 459
--
molecule: Cc1nccn1-c1ncnc2c1ncn2C[C@@H](O)CN1CCN(C(c2ccccc2)c2ccccc2)CC1
Change, %: 1449
--
molecule: O=Cc1cccn1-c1ncnc2c1ncn2C[C@@H](O)CN1CCN(C(c2ccccc2)c2ccccc2)CC1
Change, %: 904
--
molecule: O[C@@H](CN1CCN(C(c2ccccc2)c2ccccc2)CC1)Cn1cnc2c(-c3ncon3)ncnc21
Change, %: 138
--
molecule: O[C@@H](CN1CCN(C(c2ccccc2)c2ccccc2)CC1)Cn1cnc(-n2cccc2)c2ncnc1-2
Change, %: 540
--
molecule: O[C@@H](CN1CCN(C(c2ccccc2)c2ccccc2)CC1)Cn1cnc(-c2cccs2)c2ncnc1-2
Change, %: 437
--
molecule: O[C@@H](CN1CCN(C(c2ccccc2)c2ccccc2)CC1)Cn1cnc(-c2ccncc2)c2ncnc1-2
Change, %: 265
--
molecule: Cc1ccn(-c2ncnc3c2ncn3CC(O)CN2CCN(C(c3ccccc3)c3ccccc3)CC2)n1 (configuration not stated)
Change, %: 40
--
molecule: O[C@@H](CN1CCN(C(c2ccccc2)c2ccccc2)CC1)Cn1cnc2c(-c3ccccc3)ncnc21
Change, %: 128
--
molecule: O[C@@H](CN1CCN(C(c2ccccc2)c2ccccc2)CC1)Cn1cnc(-c2ncon2)c2ncnc1-2
Change, %: -6
--
molecule: O[C@@H](CN1CCN(C(c2ccccc2)c2ccccc2)CC1)Cn1cnc2c(-n3cccn3)ncnc21
Change, %: 540
--
molecule: O[C@@H](CN1CCN(C(c2ccccc2)c2ccccc2)CC1)Cn1cnc(-c2ccccc2)c2ncnc1-2
Change, %: 201
--
molecule: O=Cc1ccn(-c2ncnc3c2ncn3C[C@@H](O)CN2CCN(C(c3ccccc3)c3ccccc3)CC2)c1
Change, %: 63
--
molecule: O[C@@H](CN1CCN(C(c2ccccc2)c2ccccc2)CC1)Cn1cnc2c(-c3ccncc3)ncnc21
Change, %: 99
--
molecule: N#Cc1cccn1-c1ncnc2c1ncn2C[C@@H](O)CN1CCN(C(c2ccccc2)c2ccccc2)CC1
Change, %: 456
--
molecule: O[C@@H](CN1CCN(C(c2ccccc2)c2ccccc2)CC1)Cn1cnc2c(-c3cccs3)ncnc21
Change, %: 116
--
molecule: N#Cc1cc2c(OCC(O)CN3CCN(C(c4ccccc4)c4ccccc4)CC3)cccc2[nH]1 (configuration not stated)
Change, %: 174

###

test: Effective concentration against Xenopus oocytes expressing human heart Na channel; type: functional, cell-based; details: oocyte
Listed below: EC50 values for each entry.

molecule: OC(CN1CCN(C(c2ccccc2)c2ccccc2)CC1)Cn1cnc2c(Cl)ncnc21 (stereo unspecified)
EC50: 1950 nM
//
molecule: Cc1nccn1-c1ncnc2c1ncn2C[C@@H](O)CN1CCN(C(c2ccccc2)c2ccccc2)CC1
EC50: 2700 nM
//
molecule: O[C@@H](CN1CCN(C(c2ccccc2)c2ccccc2)CC1)Cn1cnc2c(-n3cncn3)ncnc21
EC50: 920 nM
//
molecule: O[C@@H](CN1CCN(C(c2ccccc2)c2ccccc2)CC1)Cn1cnc(-c2ccccc2)c2ncnc1-2
EC50: 1600 nM
//
molecule: Cc1nccn1-c1ncnc2c1ncn2CC(O)CN1CCN(C(c2ccccc2)c2ccccc2)CC1 (stereo unspecified)
EC50: 1260 nM
//
molecule: O[C@@H](CN1CCN(C(c2ccccc2)c2ccccc2)CC1)Cn1cnc2c(-c3ccncc3)ncnc21
EC50: 2800 nM
//
molecule: O[C@@H](CN1CCN(C(c2ccccc2)c2ccccc2)CC1)Cn1cnc2c(-c3ccccc3)ncnc21
EC50: 2000 nM
//
molecule: Cc1ncnc2c1ncn2C[C@@H](O)CN1CCN(C(c2ccccc2)c2ccccc2)CC1
EC50: 3990 nM
//
molecule: N#Cc1cccn1-c1ncnc2c1ncn2C[C@@H](O)CN1CCN(C(c2ccccc2)c2ccccc2)CC1
EC50: 447 nM
//
molecule: O=Cc1cccn1-c1ncnc2c1ncn2C[C@@H](O)CN1CCN(C(c2ccccc2)c2ccccc2)CC1
EC50: 78 nM
//
molecule: O[C@@H](CN1CCN(C(c2ccccc2)c2ccccc2)CC1)Cn1cnc2c(-c3cccs3)ncnc21
EC50: 1030 nM

###

# key: entry, value: Change
tested on: Sodium channel protein type 5 subunit alpha (Cavia porcellus); assay: Inactivation process of guinea pig cardiac Na channels expressed in xenopus oocytes was determined by measuring increase in current integral in presence of compound versus control at 10 uM; details: oocyte
test-readout: Change (%)

molecule: OC(CN1CCN(C(c2ccccc2)c2ccccc2)CC1)Cn1cnc2c(-n3ccnc3)ncnc21 (stereo not given)
target-or-system: Sodium channel protein type 5 subunit alpha (Cavia porcellus)
measured-result: 680
--
molecule: OC(CN1CCN(C2c3ccccc3-c3ccccc32)CC1)Cn1cnc2c(-n3cccc3)ncnc21 (stereo not given)
target-or-system: Sodium channel protein type 5 subunit alpha (Cavia porcellus)
measured-result: -19
--
molecule: OC(CN1CCN(CC(c2ccccc2)c2ccccc2)CC1)Cn1cnc2c(-n3cccc3)ncnc21 (stereo not given)
target-or-system: Sodium channel protein type 5 subunit alpha (Cavia porcellus)
measured-result: -47
--
molecule: OC(CN1CCN(C(c2ccccc2)c2ccccc2)CC1)Cn1cnc2c(NCc3ccccc3)ncnc21 (stereo not given)
target-or-system: Sodium channel protein type 5 subunit alpha (Cavia porcellus)
measured-result: -77
--
molecule: O[C@H](CN1CCN(C(c2ccccc2)c2ccccc2)CC1)Cn1cnc2c(-n3cccc3)ncnc21
target-or-system: Sodium channel protein type 5 subunit alpha (Cavia porcellus)
measured-result: 21
--
molecule: N#Cc1ncnc2c1ncn2CC(O)CN1CCN(C(c2ccccc2)c2ccccc2)CC1 (stereo not given)
target-or-system: Sodium channel protein type 5 subunit alpha (Cavia porcellus)
measured-result: 1328
--
molecule: Cc1cnn(-c2ncnc3c2ncn3CC(O)CN2CCN(C(c3ccccc3)c3ccccc3)CC2)c1 (stereo not given)
target-or-system: Sodium channel protein type 5 subunit alpha (Cavia porcellus)
measured-result: 868
--
molecule: OC(CN1CCN(C(c2ccccc2)c2ccccc2)CC1)Cn1cnc2cncnc21 (stereo not given)
target-or-system: Sodium channel protein type 5 subunit alpha (Cavia porcellus)
measured-result: 288
--
molecule: O[C@@H](CN1CCN(C(c2ccccc2)c2ccccc2)CC1)Cn1cnc2c(-n3cccc3)nc(C(F)(F)F)nc21
target-or-system: Sodium channel protein type 5 subunit alpha (Cavia porcellus)
measured-result: -13
--
molecule: c1ccc2c(c1)CCc1ccccc1C2N1CCN(CCCn2cnc3c(-n4cccc4)ncnc32)CC1
target-or-system: Sodium channel protein type 5 subunit alpha (Cavia porcellus)
measured-result: 120
--
molecule: CN1CCN(CC(O)Cn2cnc3c(-n4cccc4)ncnc32)CC1 (stereo not given)
target-or-system: Sodium channel protein type 5 subunit alpha (Cavia porcellus)
measured-result: -35
--
molecule: OC(CN1CCC(C(c2ccccc2)c2ccccc2)CC1)Cn1cnc2c(-n3cccc3)ncnc21 (stereo not given)
target-or-system: Sodium channel protein type 5 subunit alpha (Cavia porcellus)
measured-result: 108
--
molecule: Cc1ccccc1C(c1ccccc1)N1CCN(CC(O)Cn2cnc3c(-n4cccc4)ncnc32)CC1 (stereo not given)
target-or-system: Sodium channel protein type 5 subunit alpha (Cavia porcellus)
measured-result: 209
--
molecule: Nc1nc(-c2ccncc2)nc2c1ncn2CC(O)CN1CCN(C(c2ccccc2)c2ccccc2)CC1 (stereo not given)
target-or-system: Sodium channel protein type 5 subunit alpha (Cavia porcellus)
measured-result: -2
--
molecule: Nc1ncnc2c1ncn2C[C@@H](O)CN1CCN(C(c2ccccc2)c2ccccc2)CC1
target-or-system: Sodium channel protein type 5 subunit alpha (Cavia porcellus)
measured-result: 139
--
molecule: Nc1ncnc2c1ncn2CCCN1CCN(C(c2ccccc2)c2ccccc2)CC1
target-or-system: Sodium channel protein type 5 subunit alpha (Cavia porcellus)
measured-result: -66
--
molecule: OC(CN1CCN(C(c2ccc(F)cc2)c2ccc(F)cc2)CC1)Cn1cnc2c(-n3cccc3)ncnc21 (stereo not given)
target-or-system: Sodium channel protein type 5 subunit alpha (Cavia porcellus)
measured-result: 521
--
molecule: Cc1ccc(C)n1-c1ncnc2c1ncn2CC(O)CN1CCN(C(c2ccccc2)c2ccccc2)CC1 (stereo not given)
target-or-system: Sodium channel protein type 5 subunit alpha (Cavia porcellus)
measured-result: -47
--
molecule: O[C@@H](CN1CCN(C(c2ccccc2)c2ccccc2)CC1)Cn1cnc2c(-n3cccn3)ncnc21
target-or-system: Sodium channel protein type 5 subunit alpha (Cavia porcellus)
measured-result: 1226
--
molecule: OC(CN1CCN(C(c2ccccc2)c2ccccc2)CC1)Cn1cnc2cccnc21 (stereo not given)
target-or-system: Sodium channel protein type 5 subunit alpha (Cavia porcellus)
measured-result: 154

The origin of these recorded values is ChEMBL document CHEMBL1128429.
